- assayed_target: Histamine H4 receptor (Rattus norvegicus)
- Sequence (Q91ZY1 whole entry): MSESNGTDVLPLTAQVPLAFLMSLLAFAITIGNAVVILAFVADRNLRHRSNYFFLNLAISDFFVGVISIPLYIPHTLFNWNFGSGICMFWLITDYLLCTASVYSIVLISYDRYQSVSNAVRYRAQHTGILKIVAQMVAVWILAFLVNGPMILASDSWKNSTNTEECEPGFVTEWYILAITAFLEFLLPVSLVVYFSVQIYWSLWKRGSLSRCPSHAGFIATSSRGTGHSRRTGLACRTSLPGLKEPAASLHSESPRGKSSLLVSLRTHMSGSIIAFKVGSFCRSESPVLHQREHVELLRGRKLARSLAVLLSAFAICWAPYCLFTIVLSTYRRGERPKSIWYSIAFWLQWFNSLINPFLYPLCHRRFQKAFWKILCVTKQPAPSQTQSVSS
- assay_procedure: Antagonist activity at rat histamine H4 receptor expressed in HEK293 cells assessed as inhibition of histamine-induced intracellular calcium elevation by FLIPR assay

| molecule | EC50 / µM |
| --- | --- |
| O=C(c1cc2cc(Cl)ccc2[nH]1)N1CCNCC1 | 0.0309 |
| Nc1nc2c(c(N3CCNCC3)n1)CCCc1ccc(F)cc1-2 | 0.00603 |
| CN[C@@H]1CCN(c2nc(N)nc3c2CCCc2ccccc2-3)C1 | 0.00661 |
| CNC1CN(c2nc(N)nc3c2CCCc2ccccc2-3)C1 | 0.00933 |
| CN[C@@H]1CCN(c2nc(N)nc3c2Cc2ccccc2-3)C1 | 0.0191 |
| Nc1nc2c(c(N3CC[C@@H](N)C3)n1)CCCc1ccccc1-2 | 0.01 |
| Nc1nc2c(c(N3CCNCC3)n1)CCc1ccccc1-2 | 0.024 |
| Nc1nc2c(c(N3CCNCC3)n1)CCCc1ccccc1-2 | 0.0148 |
| CN1CCN(c2nc(N)nc3c2CCc2ccccc2-3)CC1 | 0.0155 |
| Nc1nc2c(c(N3CCNCC3)n1)CCCCC2c1ccccc1 (stereo unspecified) | 0.055 |
| Nc1nc2c(c(N3CCNCC3)n1)Cc1ccccc1-2 | 0.02 |

---

- assay_procedure: AUC (0 to infinity) in mouse at 5 mg/kg, iv
- Type: ADME, organism-based
- Parameters: time infinity, dose 5 mg/kg, route intravenous
- conditions: plasma

| compound | AUC(0-inf) / µM·h |
| --- | --- |
| CN1CCN(C(=O)c2cc3cc(Cl)ccc3[nH]2)CC1 [JNJ-7777120] | 0.9 |
| O=C(c1cc2cc(Cl)ccc2[nH]1)N1CCNCC1 | 3.04 |

---

- assay_procedure: Half life in rat at 10 mg/kg, iv
- Format: ADME, organism-based
- Parameters: dose 10 mg/kg, route intravenous
- conditions: in vivo
// criterion not met strictly below 3 h in half-life; criterion met otherwise

| molecule | classification |
| --- | --- |
| Nc1nc2c(c(N3CCNCC3)n1)CCCc1ccc(F)cc1-2 | criterion met |
| Nc1nc2c(c(N3CCNCC3)n1)CCCc1ccccc1-2 | criterion not met |
| Nc1nc2c(c(N3CCNCC3)n1)CCCCC2c1ccccc1 (stereo not given) | criterion met |
| CN1CCN(c2cc(-c3ccc(C#N)cc3)nc(N)n2)CC1 | criterion not met |
| Nc1nc2c(c(N3CC[C@@H](N)C3)n1)CCCc1ccccc1-2 | criterion not met |

---

- assay_procedure: Oral bioavailability in mouse at 20 mg/kg, sc
- Type: ADME, organism-based
- conditions: in vivo, subcutaneous

| mol_smiles | bioavailability |
| --- | --- |
| O=C(c1cc2cc(Cl)ccc2[nH]1)N1CCNCC1 | 0% |
| CN1CCN(C(=O)c2cc3cc(Cl)ccc3[nH]2)CC1 | 77.6% |

---

Catalogue of clearance readings, one per entry.
- assay_procedure: Blood clearance in rat at 10 mg/kg, iv
- Format: ADME, organism-based
- Parameters: dose 10 mg/kg, route intravenous
- conditions: whole blood

| molecule | output_unit | clearance |
| --- | --- | --- |
| Nc1nc2c(c(N3CC[C@@H](N)C3)n1)CCCc1ccccc1-2 | mL/min/kg | 323 |
| Nc1nc2c(c(N3CCNCC3)n1)CCCCC2c1ccccc1 (stereo not given) | mL/min/kg | 80 |
| Nc1nc2c(c(N3CCNCC3)n1)CCCc1ccccc1-2 | mL/min/kg | 102 |
| Nc1nc2c(c(N3CCNCC3)n1)CCCc1ccc(F)cc1-2 | mL/min/kg | 60 |
| CN1CCN(c2cc(-c3ccc(C#N)cc3)nc(N)n2)CC1 | mL/min/kg | 172 |

---

- assay_procedure: Terminal volume of distribution in rat at 10 mg/kg, iv
- Type: ADME, organism-based
- Design: dose 10 mg/kg, route intravenous
- conditions: in vivo, read-out: Vbeta
Catalogue of log10(Vd) readings, one per entry.
reported_endpoint: log10(Vd) (log10 of the value in L/kg)

| compound | numeric_value |
| --- | --- |
| CN1CCN(c2cc(-c3ccc(C#N)cc3)nc(N)n2)CC1 | 0.85 |
| Nc1nc2c(c(N3CCNCC3)n1)CCCc1ccc(F)cc1-2 | 1.26 |
| Nc1nc2c(c(N3CC[C@@H](N)C3)n1)CCCc1ccccc1-2 | 1.86 |
| Nc1nc2c(c(N3CCNCC3)n1)CCCCC2c1ccccc1 (stereo not given) | 1.34 |
| Nc1nc2c(c(N3CCNCC3)n1)CCCc1ccccc1-2 | 1.30 |

---

- assay_procedure: Cmax in mouse at 5 mg/kg, iv
- Type: ADME, organism-based
- Parameters: dose 5 mg/kg, route intravenous
- conditions: in vivo
Catalogue of Cmax readings, one per entry.

| mol_smiles | Cmax [nM] |
| --- | --- |
| CN1CCN(C(=O)c2cc3cc(Cl)ccc3[nH]2)CC1 | 2220 |
| O=C(c1cc2cc(Cl)ccc2[nH]1)N1CCNCC1 | 1120 |

---

Catalogue of Cmax readings, one per entry.
- assay_procedure: Cmax in mouse at 20 mg/kg, sc
- Assay type: ADME, organism-based
- Parameters: dose 20 mg/kg, route subcutaneous
- conditions: in vivo

| mol_smiles | Cmax (nM) |
| --- | --- |
| O=C(c1cc2cc(Cl)ccc2[nH]1)N1CCNCC1 | 2000 |
| CN1CCN(C(=O)c2cc3cc(Cl)ccc3[nH]2)CC1 | 500 |

---

- Test system: Liver microsomes
- assay_procedure: Metabolic stability in rat liver microsomes
- Assay type: ADME, Microsome
Catalogue of log10 Stability readings, one per entry.
reported_endpoint: log10 Stability (log10 of the value in pmol/min/mg)

| compound | log10 Stability |
| --- | --- |
| CNC1CN(c2nc(N)nc3c2CCCc2ccccc2-3)C1 | 2.22 |
| Nc1nc2c(c(N3CCNCC3)n1)CCc1ccccc1-2 | 2.02 |
| N#Cc1ccc(-c2cc(N3CCNCC3)nc(N)n2)cc1 | 1.43 |
| CN1CCN(c2nc(N)nc3c2CCc2ccccc2-3)CC1 | 2.28 |
| Nc1nc2c(c(N3CCNCC3)n1)CCCCC2c1ccccc1 (centres undefined) | 2.03 |
| Nc1nc2c(c(N3CCNCC3)n1)Cc1ccccc1-2 | 1.82 |
| Nc1nc2c(c(N3CCNCC3)n1)CCCc1ccccc1-2 | 1.98 |
| O=C(c1cc2cc(Cl)ccc2[nH]1)N1CCNCC1 | 1.79 |
| Nc1nc2c(c(N3CCNCC3)n1)CCCc1ccc(F)cc1-2 | 2.30 |
| Nc1nc2c(c(N3CC[C@@H](N)C3)n1)CCCc1ccccc1-2 | 1.28 |
| CN1CCN(c2cc(-c3ccc(C#N)cc3)nc(N)n2)CC1 | 1.98 |
| CN[C@@H]1CCN(c2nc(N)nc3c2CCCc2ccccc2-3)C1 | 2.24 |
| CN1CCN(c2cc(-c3ccccc3)nc(N)n2)CC1 | 2.23 |
| CN1CCN(C(=O)c2cc3cc(Cl)ccc3[nH]2)CC1 | 2.25 |

---

- Test system: Liver microsomes
- assay_procedure: Metabolic stability in human liver microsomes
- Type: ADME, Microsome
Catalogue of log10 Stability readings, one per entry.
reported_endpoint: log10 Stability (log10 of the value in pmol/min/mg)

| compound | log10 Stability |
| --- | --- |
| Nc1nc2c(c(N3CC[C@@H](N)C3)n1)CCCc1ccccc1-2 | 1.11 |
| N#Cc1ccc(-c2cc(N3CCNCC3)nc(N)n2)cc1 | 0.79 |
| CN1CCN(C(=O)c2cc3cc(Cl)ccc3[nH]2)CC1 | 1.28 |
| Nc1nc2c(c(N3CCNCC3)n1)CCc1ccccc1-2 | 1.66 |
| CNC1CN(c2nc(N)nc3c2CCCc2ccccc2-3)C1 | 1.30 |
| CN1CCN(c2cc(-c3ccc(C#N)cc3)nc(N)n2)CC1 | 1.41 |
| CN[C@@H]1CCN(c2nc(N)nc3c2CCCc2ccccc2-3)C1 | 1.32 |
| CN1CCN(c2cc(-c3ccccc3)nc(N)n2)CC1 | 1.34 |
| Nc1nc2c(c(N3CCNCC3)n1)CCCCC2c1ccccc1 (centres undefined) | 1.45 |
| Nc1nc2c(c(N3CCNCC3)n1)Cc1ccccc1-2 | 1.27 |
| Nc1nc2c(c(N3CCNCC3)n1)CCCc1ccccc1-2 | 1.16 |
| Nc1nc2c(c(N3CCNCC3)n1)CCCc1ccc(F)cc1-2 | 1.44 |
| CN1CCN(c2nc(N)nc3c2CCc2ccccc2-3)CC1 | 2.01 |
| O=C(c1cc2cc(Cl)ccc2[nH]1)N1CCNCC1 | 1.42 |

---

- assay_procedure: Plasma clearance in mouse at 5 mg/kg, iv
- Assay type: ADME, organism-based
- Design: dose 5 mg/kg, route intravenous
- conditions: plasma

| compound | output_unit | clearance |
| --- | --- | --- |
| CN1CCN(C(=O)c2cc3cc(Cl)ccc3[nH]2)CC1 [JNJ-7777120] | mL/min/kg | 334 |
